# targetOfAssay: Tolloid-like protein 2 (Homo sapiens)
# Sequence (Q9Y6L7 whole entry, the tested form may be a part): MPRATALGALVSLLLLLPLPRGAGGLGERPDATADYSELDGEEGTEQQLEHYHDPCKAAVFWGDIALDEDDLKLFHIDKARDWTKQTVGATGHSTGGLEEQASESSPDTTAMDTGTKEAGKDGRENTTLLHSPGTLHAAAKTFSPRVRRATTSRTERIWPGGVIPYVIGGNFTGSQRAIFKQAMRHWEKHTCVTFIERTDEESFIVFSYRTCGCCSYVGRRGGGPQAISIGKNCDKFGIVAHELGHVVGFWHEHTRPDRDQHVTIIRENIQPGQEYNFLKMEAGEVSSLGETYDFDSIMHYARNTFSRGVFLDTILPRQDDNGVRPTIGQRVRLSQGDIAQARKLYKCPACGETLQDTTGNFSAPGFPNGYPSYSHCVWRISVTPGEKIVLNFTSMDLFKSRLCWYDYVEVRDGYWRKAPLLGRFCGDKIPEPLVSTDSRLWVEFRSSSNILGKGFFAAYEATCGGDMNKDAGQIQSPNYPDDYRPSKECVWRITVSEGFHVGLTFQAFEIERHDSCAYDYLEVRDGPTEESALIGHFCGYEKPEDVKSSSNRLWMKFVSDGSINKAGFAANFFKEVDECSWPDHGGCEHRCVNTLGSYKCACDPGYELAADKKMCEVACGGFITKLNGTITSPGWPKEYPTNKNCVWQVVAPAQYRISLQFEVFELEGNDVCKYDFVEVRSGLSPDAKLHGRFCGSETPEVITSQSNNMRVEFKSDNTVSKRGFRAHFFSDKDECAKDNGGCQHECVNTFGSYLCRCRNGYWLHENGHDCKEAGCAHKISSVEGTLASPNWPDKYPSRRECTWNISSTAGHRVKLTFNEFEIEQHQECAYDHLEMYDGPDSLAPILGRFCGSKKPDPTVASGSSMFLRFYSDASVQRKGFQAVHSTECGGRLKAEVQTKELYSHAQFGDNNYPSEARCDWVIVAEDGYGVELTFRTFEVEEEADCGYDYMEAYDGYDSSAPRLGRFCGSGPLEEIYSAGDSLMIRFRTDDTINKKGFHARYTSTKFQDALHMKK
# assayDetails: Inhibition of recombinant human N-terminal 6His-tagged TLL2 (26 to 1015 residues) expressed in CHO cells using ((5-FAM)-ELIDQYDVQRDDSSDGSLED-K(5,6 TAMRA)-CONH2) as substrate preincubated for 10 mins followed by substrate addition measured after 60 mins
quantity: pIC50
Please note pIC50 is a logarithmic value: minus log10 of concentration in mol/L. Answer with that number alone.

Record CCCCC[C@@H](C(=O)NCNC(=O)c1ccc(-c2ccccc2)o1)[C@@H](CC)N(O)C=O , field pIC50: 6.80

* * *

# targetOfAssay: Bone morphogenetic protein 1 (Homo sapiens, UniProt P13497)
# Sequence (P13497 whole entry, the tested form may be a part): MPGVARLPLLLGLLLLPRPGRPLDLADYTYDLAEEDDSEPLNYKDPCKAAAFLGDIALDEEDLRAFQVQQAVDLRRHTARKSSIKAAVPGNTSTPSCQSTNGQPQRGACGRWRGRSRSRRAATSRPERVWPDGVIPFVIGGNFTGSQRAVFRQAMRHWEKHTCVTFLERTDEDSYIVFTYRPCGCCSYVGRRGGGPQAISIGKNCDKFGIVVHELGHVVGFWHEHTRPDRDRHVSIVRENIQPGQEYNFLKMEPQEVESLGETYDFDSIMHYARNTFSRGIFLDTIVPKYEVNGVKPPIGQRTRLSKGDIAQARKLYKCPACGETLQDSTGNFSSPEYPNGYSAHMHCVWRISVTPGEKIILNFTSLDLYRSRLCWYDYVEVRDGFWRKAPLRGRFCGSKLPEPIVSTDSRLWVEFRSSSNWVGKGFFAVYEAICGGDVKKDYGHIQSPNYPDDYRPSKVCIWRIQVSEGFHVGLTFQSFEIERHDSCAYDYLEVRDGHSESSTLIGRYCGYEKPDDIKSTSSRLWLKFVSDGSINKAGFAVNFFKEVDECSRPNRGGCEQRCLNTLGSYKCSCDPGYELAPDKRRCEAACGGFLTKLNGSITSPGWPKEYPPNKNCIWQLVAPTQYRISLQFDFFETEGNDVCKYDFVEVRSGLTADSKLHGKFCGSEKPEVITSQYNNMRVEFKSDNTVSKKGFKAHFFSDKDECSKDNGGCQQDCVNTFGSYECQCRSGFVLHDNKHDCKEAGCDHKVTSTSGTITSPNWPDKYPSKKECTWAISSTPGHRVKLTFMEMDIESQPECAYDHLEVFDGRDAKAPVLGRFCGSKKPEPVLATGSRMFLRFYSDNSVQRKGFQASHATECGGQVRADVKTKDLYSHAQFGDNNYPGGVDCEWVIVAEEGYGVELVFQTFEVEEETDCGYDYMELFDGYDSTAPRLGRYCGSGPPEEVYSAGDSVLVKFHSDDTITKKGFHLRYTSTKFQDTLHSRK
# assayDetails: Inhibition of recombinant human N-terminal 6His/flag-tagged BMP1 (121 to 721 residues) expressed in CHO cells using ((5-FAM)-ELIDQYDVQRDDSSDGSLED-K(5,6 TAMRA)-CONH2) as substrate preincubated for 10 mins followed by substrate addition measured after 60 mins
Quick list: pIC50 per entry.
Please note pIC50 is a logarithmic value: minus log10 of concentration in mol/L. Answer with that number alone.

>  <smilesRepresentation>
CCCCC[C@H](CN(O)C=O)C(=O)NCNC(=O)c1ccc(-c2cccc(OC)c2)o1

>  <endpointValue>
7.70

$$$$
>  <smilesRepresentation>
CCCCC[C@H](CN(O)C=O)C(=O)NCNC(=O)c1ccc(-c2ccc(C(=O)O)cc2)o1

>  <endpointValue>
9.00

$$$$

Record COc1cccc2cc(C(=O)NCNC(=O)CCN(O)C=O)oc12 , field pIC50: 5.20

Record CCCCC[C@H](CN(O)C=O)C(=O)NCNC(=O)c1ccc(-c2ccccc2)o1 , field pIC50: 7.60

* * *

Quick list: pIC50 per entry.
# targetOfAssay: Bone morphogenetic protein 1 (Homo sapiens, UniProt P13497)
# assayDetails: Inhibition of recombinant human N-terminal 6His/flag-tagged BMP1 (121 to 721 residues) expressed in CHO cells using ((5-FAM)-ELIDQYDVQRDDSSDGSLED-K(5,6 TAMRA)-CONH2) as substrate preincubated for 10 mins followed by substrate addition measured after 60 mins
Please note pIC50 is a logarithmic value: minus log10 of concentration in mol/L. Answer with that number alone.

Below: 5 compounds and their reported pIC50.
>  <smilesRepresentation>
CCC[C@H](CN(O)C=O)C(=O)NCNC(=O)c1cc2cccc(OC)c2o1

>  <endpointValue>
5.90

$$$$
>  <smilesRepresentation>
CCCCC[C@H](CN(O)C=O)C(=O)NCNC(=O)c1ccc(-c2cccc(C(=O)O)c2)o1

>  <endpointValue>
8.10

$$$$
>  <smilesRepresentation>
CCCCC[C@@H](C(=O)NCNC(=O)c1cc2cccc(OC)c2o1)[C@@H](CC)N(O)C=O

>  <endpointValue>
6.90

$$$$
>  <smilesRepresentation>
COc1cccc2cc(C(=O)NCNC(=O)[C@H](Cc3ccccc3)CN(O)C=O)oc12

>  <endpointValue>
6.80

$$$$
>  <smilesRepresentation>
CCCCC[C@@H](CN(O)C=O)C(=O)NCNC(=O)c1cc2cccc(OC)c2o1

>  <endpointValue>
5.40

$$$$

Record CCCCC[C@H](CN(O)C=O)C(=O)NCNC(=O)c1cc2cccc(OC)c2o1 , field pIC50: 6.80

Record CCCCC[C@@H](C(=O)NCNC(=O)c1ccc(-c2ccccc2)o1)[C@@H](CC)N(O)C=O , field pIC50: 7.49

Record CCCCC[C@H](CN(O)C=O)C(=O)NCNC(=O)c1ccc(-c2cccc(OCC)c2)o1 , field pIC50: 9.00

These entries and their values trace back to ChEMBL document CHEMBL4196124.
